target: Aromatase (Homo sapiens, UniProt P11511); assay: Inhibition of aromatase in human SKBR3 cells by tritiated water release assay; details: sk-br-3
// classify: if (IC50 < 900 nM) y else n

CCCCCCOc1cc([N+](=O)[O-])ccc1N(C)S(C)(=O)=O	n
CS(=O)(=O)Nc1ccc([N+](=O)[O-])cc1OCc1ccccc1-c1ccccc1	y

INPUT: Hi there! Is IC50 for `CN(c1ccc(NC(=O)c2ccc(Cl)c(Cl)c2)cc1OCc1ccccc1)S(C)(=O)=O` below 900 nM, do you know?
OUTPUT: y

INPUT: Hi there! Is IC50 for `CC(=O)Nc1ccc(N(C)S(C)(=O)=O)c(OCc2ccccc2)c1` below 900 nM, do you know?
OUTPUT: n

INPUT: Hi there! Is IC50 for `CS(=O)(=O)Nc1ccc([N+](=O)[O-])cc1OC1CCCC1` below 900 nM, do you know?
OUTPUT: y

---

molecular target: Aromatase (Homo sapiens); experiment: Inhibition of aromatase in human SKBR3 cells by tritiated water release assay; details: sk-br-3
pIC50: −log10 of the molar value.
Short version: pIC50 at least 6 is Criterion met, less is Criterion not met.

As a guide, the following entries are already answered.
CN(c1ccc(NC(=O)C2CCCCC2)cc1OCc1ccccc1)S(C)(=O)=O	Criterion met
CCCCCCCCCOc1cc([N+](=O)[O-])ccc1N(C)S(C)(=O)=O	Criterion not met
CCCOc1cc([N+](=O)[O-])ccc1NS(C)(=O)=O	Criterion not met
Cc1ccc(S(=O)(=O)Nc2ccc([N+](=O)[O-])cc2OCc2ccccc2)cc1	Criterion not met
CN(c1ccc(NC(=O)c2ccc(-c3ccccc3)cc2)cc1OCc1ccccc1)S(C)(=O)=O	Criterion met

INPUT: // inclusive: pIC50 at least 6? input: `CC(C)Oc1cc([N+](=O)[O-])ccc1N(C)S(C)(=O)=O`
OUTPUT: Criterion not met

INPUT: // inclusive: pIC50 at least 6? input: `Cc1ccc(C)c(COc2cc([N+](=O)[O-])ccc2NS(C)(=O)=O)c1`
OUTPUT: Criterion met

INPUT: // inclusive: pIC50 at least 6? input: `CS(=O)(=O)Nc1ccc([N+](=O)[O-])cc1OCc1ccc(Br)cc1`
OUTPUT: Criterion not met

INPUT: // inclusive: pIC50 at least 6? input: `O=C(Nc1ccc([N+](=O)[O-])cc1OCc1ccccc1)c1ccc([N+](=O)[O-])cc1`
OUTPUT: Criterion not met

INPUT: // inclusive: pIC50 at least 6? input: `O=C(Nc1ccc([N+](=O)[O-])cc1OCc1ccccc1)C1CCCCC1`
OUTPUT: Criterion not met

INPUT: // inclusive: pIC50 at least 6? input: `CCCCCCOc1cc([N+](=O)[O-])ccc1NS(C)(=O)=O`
OUTPUT: Criterion not met

---

Target: UniProtKB P11511
Sequence (P11511 whole entry): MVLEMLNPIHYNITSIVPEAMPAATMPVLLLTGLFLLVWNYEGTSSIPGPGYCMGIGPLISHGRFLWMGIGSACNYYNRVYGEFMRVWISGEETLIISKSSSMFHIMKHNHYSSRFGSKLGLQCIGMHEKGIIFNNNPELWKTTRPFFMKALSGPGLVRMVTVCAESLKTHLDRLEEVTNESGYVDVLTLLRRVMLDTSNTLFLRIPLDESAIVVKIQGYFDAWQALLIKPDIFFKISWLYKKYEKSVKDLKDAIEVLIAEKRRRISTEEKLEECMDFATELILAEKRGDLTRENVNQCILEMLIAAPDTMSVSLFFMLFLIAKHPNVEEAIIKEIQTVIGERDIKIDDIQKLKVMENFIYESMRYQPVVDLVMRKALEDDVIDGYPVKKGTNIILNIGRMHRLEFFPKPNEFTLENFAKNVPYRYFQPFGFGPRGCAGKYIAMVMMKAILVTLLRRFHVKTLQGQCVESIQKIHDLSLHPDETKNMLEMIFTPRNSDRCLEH
Assay: Inhibition of aromatase in human SKBR3 cells by tritiated water release assay
Assay type: cell-based
Conditions: sk-br-3
resultType: IC50 (nM)
Number only, in nM; omit the unit.

The following compounds have reported results that may help.
Cc1ccc(COc2cc([N+](=O)[O-])ccc2NS(C)(=O)=O)cc1	1750
CN(c1ccc([N+](=O)[O-])cc1OCc1cccc2ccccc12)S(C)(=O)=O	1170
CS(=O)(=O)Nc1ccc([N+](=O)[O-])cc1OCc1ccc([N+](=O)[O-])cc1	400

INPUT: Item under review: `CN(c1ccc([N+](=O)[O-])cc1OCc1ccc(-c2ccccc2)cc1)S(C)(=O)=O` . Reported IC50?
OUTPUT: 650

INPUT: Item under review: `CC(C)Oc1cc([N+](=O)[O-])ccc1NS(C)(=O)=O` . Reported IC50?
OUTPUT: 5870

INPUT: Item under review: `CN(c1ccc(NC(=O)c2ccc(Cl)c([N+](=O)[O-])c2)cc1OCc1ccccc1)S(C)(=O)=O` . Reported IC50?
OUTPUT: 690

INPUT: Item under review: `CS(=O)(=O)Nc1ccc([N+](=O)[O-])cc1OCc1cccc2ccccc12` . Reported IC50?
OUTPUT: 5740
